// pIC50 lookup, one value per entry
# tgt: Bcat-Halo (UniProt P35222)
# Sequence (P35222 whole entry): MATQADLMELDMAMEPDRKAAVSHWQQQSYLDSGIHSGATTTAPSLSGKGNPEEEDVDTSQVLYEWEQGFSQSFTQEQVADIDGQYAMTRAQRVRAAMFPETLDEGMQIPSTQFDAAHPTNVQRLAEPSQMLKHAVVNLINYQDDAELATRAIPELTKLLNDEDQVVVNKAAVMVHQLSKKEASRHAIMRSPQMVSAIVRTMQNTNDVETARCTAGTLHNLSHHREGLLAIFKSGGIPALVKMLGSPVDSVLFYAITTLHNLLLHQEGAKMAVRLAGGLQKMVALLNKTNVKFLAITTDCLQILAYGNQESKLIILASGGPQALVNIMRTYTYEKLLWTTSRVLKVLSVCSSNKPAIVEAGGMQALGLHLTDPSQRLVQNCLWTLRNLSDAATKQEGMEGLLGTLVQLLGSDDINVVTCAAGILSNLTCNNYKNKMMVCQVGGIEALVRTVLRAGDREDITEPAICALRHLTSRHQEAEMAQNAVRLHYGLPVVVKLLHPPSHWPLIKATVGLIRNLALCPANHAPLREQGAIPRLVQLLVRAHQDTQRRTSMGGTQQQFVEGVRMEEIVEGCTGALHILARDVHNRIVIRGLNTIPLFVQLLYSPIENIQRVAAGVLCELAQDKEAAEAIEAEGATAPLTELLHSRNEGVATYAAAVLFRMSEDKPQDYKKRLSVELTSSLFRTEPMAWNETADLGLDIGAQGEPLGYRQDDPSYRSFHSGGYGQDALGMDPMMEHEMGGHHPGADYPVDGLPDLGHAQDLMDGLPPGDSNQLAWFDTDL
# assay info: NanoBRET Abs IC50, HEK293 cells, Bcat-Halo/TCF4-Luc; competitor TCF4-Luc
pIC50: −log10 of the molar value. Starred links: 1 amine or outer side, 2 acyl side, 3 side chain; linkers in the order of their positions; H or OH if unused. Positions of bridges follow the written chain, without caps; N, C: chain ends. Non-standard residues stand in square brackets, D forms with d. Primed or numbered codes have the meaning given here. *: point of attachment. PyrS2″ = (S)-3-amino-1-((pent-4-en-1-yloxy)carbonyl)pyrrolidine-3-carboxylic acid (stapling residue), C=CCCCOC(=O)N1CC[C@@](N[*:1])(C(=O)[*:2])C1; B5(5) = 2,2-bis(4-pentenyl)glycine, 2-amino-2-(pent-4-en-1-yl)hept-6-enoic acid (stitching residue), C=CCCCC(CCCC=C)(N[*:1])C(=O)[*:2]; PyrS2 = (S)-3-amino-1-((pent-4-en-1-yloxy)carbonyl)pyrrolidine-3-carboxylic acid, C=CCCCOC(=O)N1CC[C@@](N[*:1])(C(=O)[*:2])C1; B5(3) = 2,2-bis(4-pentenyl)glycine (stitching residue), C=CCCCC(CCCC=C)(N[*:1])C(=O)[*:2]; Phe(2-Cl) = N[C@@H](Cc1ccccc1Cl)C(=O)O; 1Nal = N[C@@H](Cc1cccc2ccccc12)C(=O)O; Bta = N[C@@H](Cc1csc2ccccc12)C(=O)O; αAllylPro = C=CC[C@@]1(C(=O)O)CCCN1; tBuAla = CC(C)(C)C[C@H](N)C(=O)O; iPr = CC(C)*
quantity measured: pIC50

[[record]]
binder = "Ac-[αAllylPro]D[tBuAla][B5(3)]DTAAFT[PyrS2″][1Nal][Bta]S-NH2 (staple 1-4, 4-11) [I-1269]"
value_qualifier = "="
recorded_number = 4.75

[[record]]
binder = "Ac-[αAllylPro]D[tBuAla][B5(3)]DDK(iPr)AFT[PyrS2″][Phe(2-Cl)][Bta]T-NH2 (staple 1-4, 4-11) [I-1273]"
value_qualifier = "<"
recorded_number = 4.70

[[record]]
binder = "Ac-[αAllylPro]D[tBuAla][B5(3)]DDK(iPr)AFL[PyrS2″][Phe(2-Cl)][Bta]T-NH2 (staple 1-4, 4-11) [I-1276]"
value_qualifier = "<"
recorded_number = 4.70

[[record]]
binder = "Ac-[αAllylPro]D[tBuAla][B5(3)]DDK(iPr)AFL[PyrS2″][Phe(2-Cl)][Bta]L-NH2 (staple 1-4, 4-11) [I-1277]"
value_qualifier = "<"
recorded_number = 4.70

[[record]]
binder = "Ac-[αAllylPro]D[tBuAla][B5(5)]DDAAFK(iPr)[PyrS2][Phe(2-Cl)][Bta]T-NH2 (staple 1-4, 4-11) [I-1279]"
value_qualifier = "="
recorded_number = 4.64

